# system: human AC5 (Homo sapiens)
# Sequence (O95622 whole entry): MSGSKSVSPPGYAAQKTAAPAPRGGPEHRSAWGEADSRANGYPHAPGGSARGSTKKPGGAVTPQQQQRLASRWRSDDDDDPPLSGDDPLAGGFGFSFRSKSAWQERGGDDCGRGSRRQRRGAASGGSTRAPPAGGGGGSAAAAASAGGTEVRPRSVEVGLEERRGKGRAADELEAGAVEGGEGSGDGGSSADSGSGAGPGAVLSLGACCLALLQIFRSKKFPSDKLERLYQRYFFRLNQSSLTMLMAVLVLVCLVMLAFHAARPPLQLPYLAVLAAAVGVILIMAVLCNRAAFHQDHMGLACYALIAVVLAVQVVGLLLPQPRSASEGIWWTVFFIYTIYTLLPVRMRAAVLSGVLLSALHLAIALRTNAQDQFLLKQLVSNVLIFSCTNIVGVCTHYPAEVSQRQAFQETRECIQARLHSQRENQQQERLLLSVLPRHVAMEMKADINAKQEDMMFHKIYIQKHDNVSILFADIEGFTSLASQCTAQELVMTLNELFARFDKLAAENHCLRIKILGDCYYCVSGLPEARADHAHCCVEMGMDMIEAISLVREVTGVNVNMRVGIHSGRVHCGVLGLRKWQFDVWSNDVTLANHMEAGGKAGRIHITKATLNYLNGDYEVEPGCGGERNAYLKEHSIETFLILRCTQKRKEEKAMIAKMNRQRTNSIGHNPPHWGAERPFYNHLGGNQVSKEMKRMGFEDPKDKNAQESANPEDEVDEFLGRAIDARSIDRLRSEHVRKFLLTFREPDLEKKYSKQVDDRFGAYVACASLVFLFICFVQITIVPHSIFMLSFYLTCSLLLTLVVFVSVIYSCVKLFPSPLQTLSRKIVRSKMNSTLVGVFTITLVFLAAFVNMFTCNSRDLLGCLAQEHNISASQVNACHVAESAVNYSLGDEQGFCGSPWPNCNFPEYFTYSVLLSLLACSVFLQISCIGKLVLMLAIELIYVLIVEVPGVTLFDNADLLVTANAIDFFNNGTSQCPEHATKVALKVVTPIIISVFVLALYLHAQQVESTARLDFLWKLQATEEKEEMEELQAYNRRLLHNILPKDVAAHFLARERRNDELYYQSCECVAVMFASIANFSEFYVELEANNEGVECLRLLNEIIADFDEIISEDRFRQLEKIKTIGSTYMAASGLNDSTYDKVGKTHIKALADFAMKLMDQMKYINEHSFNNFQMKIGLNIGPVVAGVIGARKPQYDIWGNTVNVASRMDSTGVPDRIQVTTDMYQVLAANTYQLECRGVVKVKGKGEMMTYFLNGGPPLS
# Format: cell-based
quantity: Response of Control (%) AC5
All answers are understood in %, so give the number only.

Below: 2 compounds and their reported Response of Control (%) AC5.
{"columns": ["compound", "units label", "value"],
 "data": [
  ["CC(C)(C)C(=O)OCOP(=O)(COCCn1cnc2c(N)ncnc21)OCOC(=O)C(C)(C)C [Compound I, adefovir dipivoxil, reference compound]", "%", 345],
  ["CC(C)OC(=O)[C@H](Cc1ccccc1)NP(=O)(COCCn1nnc2c(N)ncnc21)N[C@@H](Cc1ccccc1)C(=O)OC(C)C [Compound 18b]", "%", 176]
]}

Exam item: Report Response of Control (%) AC5 for `CC(C)OC(=O)[C@H](Cc1ccccc1)NP(=O)(COCCn1cnc2c(N)ccnc21)N[C@@H](Cc1ccccc1)C(=O)OC(C)C` please.
Marked response: 98

Exam item: Let us now turn to CC(C)OC(=O)C(Cc1ccccc1)NP(=O)(COCCn1cc(I)c2c(N)ncnc21)NC(Cc1ccccc1)C(=O)OC(C)C (stereo not shown)
Marked response: 229

Exam item: Let us now turn to `CC(C)OC(=O)[C@H](Cc1ccccc1)NP(=O)(COCCc1csc2c(N)ncnc12)N[C@@H](Cc1ccccc1)C(=O)OC(C)C`
Marked response: 178

Exam item: Let us now turn to CC(C)OC(=O)[C@H](Cc1ccccc1)NP(=O)(COCCn1cnc2c(N)ncnc21)N[C@@H](Cc1ccccc1)C(=O)OC(C)C [III, reference compound]
Marked response: 99

Exam item: Let us now turn to `CC(C)OC(=O)[C@H](Cc1ccccc1)NP(=O)(COCCc1c[nH]c2c(N)ncnc12)N[C@@H](Cc1ccccc1)C(=O)OC(C)C`
Marked response: 134

Exam item: Let us now turn to `CC(C)OC(=O)[C@H](Cc1ccccc1)NP(=O)(COCCn1cc(F)c2c(N)ncnc21)N[C@@H](Cc1ccccc1)C(=O)OC(C)C`
Marked response: 108

Exam item: Let us now turn to `CC(C)OC(=O)[C@H](Cc1ccccc1)NP(=O)(COCCc1cccc2c(N)ncnc12)N[C@@H](Cc1ccccc1)C(=O)OC(C)C`
Marked response: 220

Exam item: Let us now turn to `CC(C)OC(=O)[C@H](Cc1ccccc1)NP(=O)(COCCn1cc(Br)c2c(N)ncnc21)N[C@@H](Cc1ccccc1)C(=O)OC(C)C`
Marked response: 215

* * *

# system: Bordetella pertussis adenylate cyclase toxin (ACT) (Bordetella pertussis)
# assay name: cell-based
# Format: cell-based
# experimental parameters: read-out: IC50 (concentration causing a 50% decrease in ACT-induced cAMP accumulation)
Let's look at some molecules and their measured IC50.

Below: 5 molecules and their reported IC50.
{"columns": ["molecule", "quantity", "value"],
 "data": [
  ["CC(C)OC(=O)C(Cc1ccccc1)NP(=O)(COCCn1cc(I)c2c(N)ncnc21)NC(Cc1ccccc1)C(=O)OC(C)C (stereo not drawn)", "IC50", "2180 nM"],
  ["CC(C)OC(=O)[C@H](Cc1ccccc1)NP(=O)(COCCn1cnc2c(N)ncnc21)N[C@@H](Cc1ccccc1)C(=O)OC(C)C [III, reference compound]", "IC50", "147 nM"],
  ["CC(C)OC(=O)[C@H](Cc1ccccc1)NP(=O)(COCCn1cc(Br)c2c(N)ncnc21)N[C@@H](Cc1ccccc1)C(=O)OC(C)C", "IC50", "3780 nM"],
  ["CC(C)OC(=O)C(Cc1ccccc1)NP(=O)(COCCc1ccc2c(N)ncnn12)NC(Cc1ccccc1)C(=O)OC(C)C (stereo not drawn)", "IC50", "1240 nM"],
  ["CC(C)OC(=O)[C@H](Cc1ccccc1)NP(=O)(COCCn1cnc2c(N)ccnc21)N[C@@H](Cc1ccccc1)C(=O)OC(C)C", "IC50", "> 10000 nM"]
]}

Exam item: Report IC50 for `CC(C)OC(=O)[C@H](Cc1ccccc1)NP(=O)(COCCn1cc(F)c2c(N)ncnc21)N[C@@H](Cc1ccccc1)C(=O)OC(C)C` please.
Marked response: 134 nM

* * *

# system: human AC1 (Homo sapiens)
# Assay type: cell-based
quantity: Response of Control (%) AC1
Answer with the number, then the unit.

Below: 2 compounds and their reported Response of Control (%) AC1.
{"columns": ["compound", "value"],
 "data": [
  ["CC(C)OC(=O)[C@H](Cc1ccccc1)NP(=O)(COCCn1cnc2c(N)ccnc21)N[C@@H](Cc1ccccc1)C(=O)OC(C)C [Compound 2a]", "88 ± 6%"],
  ["CC(C)OC(=O)[C@H](Cc1ccccc1)NP(=O)(COCCn1cc(Br)c2c(N)ncnc21)N[C@@H](Cc1ccccc1)C(=O)OC(C)C [Compound 6d]", "24 ± 5%"]
]}

Exam item: Report Response of Control (%) AC1 for CC(C)OC(=O)C(Cc1ccccc1)NP(=O)(COCCn1cnc2c(N)nccc21)NC(Cc1ccccc1)C(=O)OC(C)C (stereo not drawn) [Compound 2b] please.
Marked response: 88 ± 15%

Exam item: Let us now turn to CC(C)OC(=O)[C@H](Cc1ccccc1)NP(=O)(COCCc1csc2c(N)ncnc12)N[C@@H](Cc1ccccc1)C(=O)OC(C)C [Compound 24]
Marked response: 63 ± 5%

Exam item: Let us now turn to CC(C)OC(=O)[C@H](Cc1ccccc1)NP(=O)(COCCn1ccc2c(N)ncnc21)N[C@@H](Cc1ccccc1)C(=O)OC(C)C [Compound 6a]
Marked response: 66 ± 15%

Exam item: Let us now turn to CC(C)OC(=O)C(Cc1ccccc1)NP(=O)(COCCc1ccc2c(N)ncnn12)NC(Cc1ccccc1)C(=O)OC(C)C (stereo not drawn) [Compound 39]
Marked response: 56 ± 7%

* * *

# system: ACT (Sigma) (Bordetella pertussis, UniProt P0DKX7)
# Sequence (P0DKX7 whole entry, looked up): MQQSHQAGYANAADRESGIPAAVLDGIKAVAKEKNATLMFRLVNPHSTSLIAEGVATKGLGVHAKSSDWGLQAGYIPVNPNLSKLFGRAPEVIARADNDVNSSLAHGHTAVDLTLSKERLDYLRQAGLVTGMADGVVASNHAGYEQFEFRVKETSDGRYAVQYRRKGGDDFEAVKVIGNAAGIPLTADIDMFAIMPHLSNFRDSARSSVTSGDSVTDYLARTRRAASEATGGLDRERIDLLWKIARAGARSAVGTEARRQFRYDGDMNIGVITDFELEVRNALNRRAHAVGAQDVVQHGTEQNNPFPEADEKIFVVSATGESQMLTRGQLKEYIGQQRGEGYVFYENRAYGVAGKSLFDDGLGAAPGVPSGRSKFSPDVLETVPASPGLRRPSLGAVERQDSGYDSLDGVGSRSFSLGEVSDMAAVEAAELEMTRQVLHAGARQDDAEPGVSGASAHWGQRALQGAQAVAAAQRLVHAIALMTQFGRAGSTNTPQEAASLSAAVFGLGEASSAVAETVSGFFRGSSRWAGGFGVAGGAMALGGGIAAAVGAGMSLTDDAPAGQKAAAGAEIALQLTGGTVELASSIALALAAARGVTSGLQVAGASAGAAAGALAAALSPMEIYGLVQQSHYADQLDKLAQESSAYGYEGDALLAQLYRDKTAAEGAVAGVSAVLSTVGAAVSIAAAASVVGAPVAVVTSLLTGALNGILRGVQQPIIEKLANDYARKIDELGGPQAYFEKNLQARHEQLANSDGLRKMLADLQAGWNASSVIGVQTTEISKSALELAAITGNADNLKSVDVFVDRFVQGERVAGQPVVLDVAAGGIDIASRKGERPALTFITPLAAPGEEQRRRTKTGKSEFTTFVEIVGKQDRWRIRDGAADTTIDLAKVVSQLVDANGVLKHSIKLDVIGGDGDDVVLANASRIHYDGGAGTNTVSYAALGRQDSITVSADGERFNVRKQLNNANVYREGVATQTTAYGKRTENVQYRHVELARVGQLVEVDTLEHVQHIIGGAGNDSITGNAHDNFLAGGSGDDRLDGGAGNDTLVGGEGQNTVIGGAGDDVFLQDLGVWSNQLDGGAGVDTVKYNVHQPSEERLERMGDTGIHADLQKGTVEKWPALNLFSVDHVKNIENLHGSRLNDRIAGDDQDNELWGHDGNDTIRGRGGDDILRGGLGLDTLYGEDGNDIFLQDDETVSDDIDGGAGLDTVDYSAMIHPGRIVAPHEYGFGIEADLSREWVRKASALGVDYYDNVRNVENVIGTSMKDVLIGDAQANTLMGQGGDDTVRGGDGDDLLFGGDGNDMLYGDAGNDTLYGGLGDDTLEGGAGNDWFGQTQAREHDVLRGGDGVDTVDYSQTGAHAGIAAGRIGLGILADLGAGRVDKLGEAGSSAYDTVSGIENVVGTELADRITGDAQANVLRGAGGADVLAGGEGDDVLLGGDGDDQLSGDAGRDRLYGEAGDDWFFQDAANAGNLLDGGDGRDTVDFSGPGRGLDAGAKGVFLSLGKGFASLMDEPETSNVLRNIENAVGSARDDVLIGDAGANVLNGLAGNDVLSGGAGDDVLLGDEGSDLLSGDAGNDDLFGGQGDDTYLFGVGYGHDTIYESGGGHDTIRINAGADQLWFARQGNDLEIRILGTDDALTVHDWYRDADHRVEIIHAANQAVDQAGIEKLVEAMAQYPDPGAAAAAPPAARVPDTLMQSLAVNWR
quantity: IC50 (nM)
All answers are understood in nM, so give the number only.

Exam item: Report IC50 for `Nc1ncnc2c(CCOCP(=O)(O)OP(=O)(O)OP(=O)(O)O)c[nH]c12` please.
Marked response: 9.32

* * *

Let's look at some molecules and their measured Response of Control (%) AC1.
# system: human AC1 (Homo sapiens)
# Assay type: cell-based
All answers are understood in %, so give the number only.

Below: 2 molecules and their reported Response of Control (%) AC1.
{"columns": ["molecule", "Response of Control (%) AC1"],
 "data": [
  ["CC(C)OC(=O)[C@H](Cc1ccccc1)NP(=O)(COCCn1nnc2c(N)ncnc21)N[C@@H](Cc1ccccc1)C(=O)OC(C)C [Compound 18b]", 79],
  ["CC(C)OC(=O)[C@H](Cc1ccccc1)NP(=O)(COCCn1ncc2c(N)ncnc21)N[C@@H](Cc1ccccc1)C(=O)OC(C)C [Compound 18a]", 71]
]}

Okay, next one:
Exam item: Report Response of Control (%) AC1 for `CC(C)OC(=O)[C@H](Cc1ccccc1)NP(=O)(COCCc1cccc2c(N)ncnc12)N[C@@H](Cc1ccccc1)C(=O)OC(C)C` please.
Marked response: 56

* * *

# system: human AC2 (Homo sapiens)
# Sequence (Q08462 whole entry): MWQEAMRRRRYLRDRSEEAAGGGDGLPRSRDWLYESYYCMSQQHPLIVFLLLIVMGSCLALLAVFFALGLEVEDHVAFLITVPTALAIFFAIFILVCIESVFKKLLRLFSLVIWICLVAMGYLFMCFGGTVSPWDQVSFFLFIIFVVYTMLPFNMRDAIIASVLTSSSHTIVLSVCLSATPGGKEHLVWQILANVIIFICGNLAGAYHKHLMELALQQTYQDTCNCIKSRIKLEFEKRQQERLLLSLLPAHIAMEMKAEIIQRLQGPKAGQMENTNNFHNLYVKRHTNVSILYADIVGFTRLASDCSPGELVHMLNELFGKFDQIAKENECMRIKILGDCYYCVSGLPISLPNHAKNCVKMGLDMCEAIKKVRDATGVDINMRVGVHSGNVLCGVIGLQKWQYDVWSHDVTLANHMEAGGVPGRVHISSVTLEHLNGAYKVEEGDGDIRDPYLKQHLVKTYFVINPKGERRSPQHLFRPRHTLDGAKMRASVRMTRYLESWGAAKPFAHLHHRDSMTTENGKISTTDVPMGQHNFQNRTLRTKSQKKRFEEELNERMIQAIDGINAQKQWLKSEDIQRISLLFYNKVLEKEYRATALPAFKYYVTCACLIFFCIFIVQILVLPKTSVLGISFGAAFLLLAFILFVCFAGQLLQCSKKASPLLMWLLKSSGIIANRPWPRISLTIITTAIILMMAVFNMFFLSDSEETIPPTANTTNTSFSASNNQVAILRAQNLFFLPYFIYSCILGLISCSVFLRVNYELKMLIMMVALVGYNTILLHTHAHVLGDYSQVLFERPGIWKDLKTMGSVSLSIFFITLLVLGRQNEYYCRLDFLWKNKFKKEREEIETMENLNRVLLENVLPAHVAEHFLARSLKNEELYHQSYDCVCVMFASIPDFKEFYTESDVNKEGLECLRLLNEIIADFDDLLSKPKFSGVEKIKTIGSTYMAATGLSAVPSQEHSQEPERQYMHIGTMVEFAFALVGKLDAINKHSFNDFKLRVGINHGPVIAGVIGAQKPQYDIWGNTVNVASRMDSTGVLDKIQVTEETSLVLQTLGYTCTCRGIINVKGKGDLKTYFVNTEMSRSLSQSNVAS
# Type: cell-based
Label key: 1 (yes) means Response of Control (%) AC2 under 200%; 0 (no) means Response of Control (%) AC2 of 200% or more.

{"columns": ["molecule", "system", "class name"],
 "data": [
  ["CC(C)OC(=O)[C@H](Cc1ccccc1)NP(=O)(COCCn1cc(Cl)c2c(N)ncnc21)N[C@@H](Cc1ccccc1)C(=O)OC(C)C", "human AC2 (Homo sapiens)", "0 (no)"]
]}

Exam item: Please let me know if `CC(C)OC(=O)[C@H](Cc1ccccc1)NP(=O)(COCCc1c[nH]c2c(N)ncnc12)N[C@@H](Cc1ccccc1)C(=O)OC(C)C` shows Response of Control (%) AC2 below 200%.
Marked response: 1 (yes)

Exam item: Let us now turn to Nc1ncc2c(n1)CC(c1ccco1)CC2=O (centres unmarked) [NKY80, reference compound]
Marked response: 1 (yes)

Exam item: Let us now turn to `CC(C)OC(=O)[C@H](Cc1ccccc1)NP(=O)(COCCc1csc2c(N)ncnc12)N[C@@H](Cc1ccccc1)C(=O)OC(C)C`
Marked response: 0 (no)

Exam item: Let us now turn to CC(C)OC(=O)[C@H](Cc1ccccc1)NP(=O)(COCCn1ncc2c(N)ncnc21)N[C@@H](Cc1ccccc1)C(=O)OC(C)C [Compound 18a]
Marked response: 0 (no)

Exam item: Let us now turn to CC(C)OC(=O)C(Cc1ccccc1)NP(=O)(COCCn1cnc2c(N)nccc21)NC(Cc1ccccc1)C(=O)OC(C)C (centres unmarked)
Marked response: 1 (yes)

Exam item: Let us now turn to `CC(C)OC(=O)[C@H](Cc1ccccc1)NP(=O)(COCCn1cc(Br)c2c(N)ncnc21)N[C@@H](Cc1ccccc1)C(=O)OC(C)C`
Marked response: 0 (no)

Exam item: Let us now turn to `CC(C)OC(=O)[C@H](Cc1ccccc1)NP(=O)(COCCn1ccc2c(N)ncnc21)N[C@@H](Cc1ccccc1)C(=O)OC(C)C`
Marked response: 0 (no)

Exam item: Let us now turn to CC(C)OC(=O)[C@H](Cc1ccccc1)NP(=O)(COCCn1nnc2c(N)ncnc21)N[C@@H](Cc1ccccc1)C(=O)OC(C)C [Compound 18b]
Marked response: 0 (no)

Exam item: Let us now turn to CC(C)OC(=O)C(Cc1ccccc1)NP(=O)(COCCn1cc(I)c2c(N)ncnc21)NC(Cc1ccccc1)C(=O)OC(C)C (centres unmarked)
Marked response: 1 (yes)

Exam item: Let us now turn to CC(C)OC(=O)C(Cc1ccccc1)NP(=O)(COCCc1ccc2c(N)ncnn12)NC(Cc1ccccc1)C(=O)OC(C)C (centres unmarked)
Marked response: 1 (yes)

Exam item: Let us now turn to Nc1ncnc2c1ncn2C1CCCO1 (centres unmarked) [SQ22536, reference compound]
Marked response: 1 (yes)

Exam item: Let us now turn to CC(C)(C)C(=O)OCOP(=O)(COCCn1cnc2c(N)ncnc21)OCOC(=O)C(C)(C)C [Compound I, adefovir dipivoxil, reference compound]
Marked response: 0 (no)

Exam item: Let us now turn to `CC(C)OC(=O)[C@H](Cc1ccccc1)NP(=O)(COCCn1cnc2c(N)ccnc21)N[C@@H](Cc1ccccc1)C(=O)OC(C)C`
Marked response: 1 (yes)

Exam item: Let us now turn to `CC(C)OC(=O)[C@H](Cc1ccccc1)NP(=O)(COCCn1cc(F)c2c(N)ncnc21)N[C@@H](Cc1ccccc1)C(=O)OC(C)C`
Marked response: 1 (yes)
